Data origin: patent US20240246937A1

Target: recombinant IL4I1 (Homo sapiens (Human))
Sequence (Q96RQ9 22-567): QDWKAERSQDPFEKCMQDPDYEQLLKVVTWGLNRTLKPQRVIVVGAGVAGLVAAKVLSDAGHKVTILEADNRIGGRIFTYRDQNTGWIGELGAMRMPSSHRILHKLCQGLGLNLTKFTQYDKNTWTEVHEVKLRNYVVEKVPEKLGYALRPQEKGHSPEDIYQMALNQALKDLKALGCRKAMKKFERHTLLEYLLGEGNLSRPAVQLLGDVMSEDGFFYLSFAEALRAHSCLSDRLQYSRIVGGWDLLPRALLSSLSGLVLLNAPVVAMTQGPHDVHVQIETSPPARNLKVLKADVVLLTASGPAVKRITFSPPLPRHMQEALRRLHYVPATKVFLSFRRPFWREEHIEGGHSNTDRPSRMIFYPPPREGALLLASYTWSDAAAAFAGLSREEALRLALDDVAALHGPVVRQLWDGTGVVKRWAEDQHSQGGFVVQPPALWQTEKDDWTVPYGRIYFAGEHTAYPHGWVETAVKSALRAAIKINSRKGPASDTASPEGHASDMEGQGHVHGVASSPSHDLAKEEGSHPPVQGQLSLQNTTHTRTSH
Assay: IL4I1 Enzymatic Assay (Amplex Red/HRP coupled fluorescence detection of H2O2)
Assay type: biochemical
Conditions: 240 min; recombinant IL4I1, four-hour pre-incubation with compound
EC50 values for the molecules below.
Dear colleague, please return just the value in nM, with no unit written.

>>> measured_result("O=C1C(=O)N(C2CCCC2)CCN1CCc1cc2ccc(Cl)cc2nn1")
15

response.value for `N#CC1(n2ccn(Cc3ccc(-n4cccn4)nc3)c(=O)c2=O)CC1` (field: EC50) = 369

response.value for `O=c1c(=O)n(C2CCCC2)ccn1Cc1ccc(-c2ccccc2)nn1` (field: EC50) = 4

response.value for `O=C1C(=O)N(C23CC(F)(C2)C3)CCN1Cc1ccc(-n2ccnn2)cn1` (field: EC50) = 995

response.value for `O=c1c(=O)n(C23CC(C2)C3)ccn1Cc1cnc(-c2ccccc2)nc1` (field: EC50) = 8

response.value for O=C1C(=O)N(C2CCCC2)CCN1Cc1nnc(N2CC3CC3C2)s1 (centres unmarked) (field: EC50) = 47

response.value for `CC1(n2ccn(Cc3ccc(-n4nccn4)cn3)c(=O)c2=O)CC1` (field: EC50) = 44

response.value for `O=C1C(=O)N(C2CCCC2)CCN1Cc1cnc(-c2ccccc2)cn1` (field: EC50) = 14

response.value for `O=C1C(=O)N(C2CCC2)CCN1Cc1cn(-c2ccccc2)cn1` (field: EC50) = 39

response.value for `CC1(n2ccn(Cc3ccc(-n4nccn4)nn3)c(=O)c2=O)CC1` (field: EC50) = 76

response.value for `O=c1c(=O)n([C@H]2C[C@H]3C[C@H]3C2)ccn1Cc1ccc(-c2cccnc2)nn1` (field: EC50) = 28

response.value for `O=C1C(=O)N(C2CCC2)CCN1Cc1cc(-c2cccc(F)c2)no1` (field: EC50) = 4

====

EC50 values for the compounds below.
Biological target: recombinant IL4I1 (Homo sapiens (Human))
Assay: IL4I1 Enzymatic Assay (Amplex Red/HRP coupled fluorescence detection of H2O2)
Type: biochemical
Conditions: 240 min; recombinant IL4I1, four-hour pre-incubation with compound
Dear colleague, please return just the value in nM, with no unit written.

>>> measured_result("O=C1C(=O)N(C2CCCC2)CCN1Cc1cnc(-c2ccccc2)nc1")
24

response.value for `O=C1C(=O)N(C2CCC2)CCN1Cc1ccc(-c2ccccc2)cn1` (field: EC50) = 6

response.value for O=C1C(=O)N(C2CCCC2)CCN1Cc1ccc(N2CCC(F)C2)nc1 (stereo not drawn) (field: EC50) = 33

response.value for O=C1C(=O)N(C2CC(C3CC3)C2)CCN1Cc1nnc(-c2ccccc2)s1 (stereo not drawn) (field: EC50) = 4

response.value for `CCOc1ccc(CN2CCN(C3CCCC3)C(=O)C2=O)nn1` (field: EC50) = 70

response.value for `O=C1C(=O)N([C@H]2C[C@H]3C[C@H]3C2)CCN1Cc1nnc(-c2cccc(F)c2)s1` (field: EC50) = 5

response.value for `O=c1c(=O)n(C23CC(C2)C3)ccn1Cc1ccc(-c2ccccc2F)nn1` (field: EC50) = 8

response.value for `O=c1c(=O)n(C2CCC2)ccn1Cc1ccc(-c2ccccc2)nn1` (field: EC50) = 6

response.value for `O=c1c(=O)n(C2CCC2)ccn1Cc1ccc(-c2cccc(F)c2F)nn1` (field: EC50) = 6

response.value for `O=c1c(=O)n(C2CCC2)ccn1Cc1cc(-c2ccccc2)ns1` (field: EC50) = 12

response.value for `O=c1c(=O)n(C23CC(F)(C2)C3)ccn1Cc1ccc(-c2ccccc2F)nn1` (field: EC50) = 30

response.value for `O=C1C(=O)N(C2CCCC2)CCN1Cc1nnc(-c2ccccc2F)s1` (field: EC50) = 8
